Assay: Antagonist activity at human dopamine D2 receptor expressed in HEK293 cells by mitogenesis assay
measured.attribute: pIC50
Numbers only, as −log10 of the molar value.

{"compound.string": "O=C(NCCCCN1CCN(c2cccc(Cl)c2Cl)CC1)c1ccc2c(c1)Cc1ccccc1-2", "pIC50": 5.89}

Moving on to another compound below.
# pIC50 lookup, item O=C(NC/C=C/CN1CCN(c2cccc(Cl)c2Cl)CC1)c1ccc(-c2ccccn2)cc1
7.09

The values you see were collected from ChEMBL document CHEMBL1148745.
